System: MAPK11
Design: species or system human, MV4-11 + K-562 + COLO205 + SK-N-BE2 + OVCAR-8
CONDITION_LABEL: read-out: apparent Kd; compound concentrations:100 nM and 1000 nM (sheet 'Samples'); n = 1
REPORTED_METRIC: potency estimated from few doses (nM)
Use nM as the unit, but write only the number.

COMPOUND	OUTPUT_UNIT	ENDPOINT_VALUE
CCc1ccc(Oc2nccc(-c3c(-c4ccc(F)cc4)ncn3C3CCNCC3)n2)cc1	nM	779
Cn1c(=O)c(-c2ccccc2Cl)cc2cnc(NC3CCOCC3)nc21	nM	20.2
CCn1c(=O)c(Oc2ccc(F)cc2F)cc2cnc(NC3CCOCC3)nc21	nM	89.8
C[C@@H](Cn1ncnn1)Nc1ncc2cc(Oc3ccc(F)cc3F)c(=O)n(C)c2n1	nM	30.9
Fc1ccc(-c2ncn(C3CCNCC3)c2-c2ccnc(Oc3ccccc3)n2)cc1	nM	45.4
CS(=O)(=O)CCn1c(=O)c(Oc2ccc(F)cc2F)cc2cnc(NC3CCOCC3)nc21	nM	1730

Switching to the query record.
[ask] Recorded potency estimated from few doses for Cc1cccc(-c2cc(-c3c[nH]nc3-c3ccccn3)ccn2)c1 [GW679395X] , please?
[reply] 1350
